Test system: M. tuberculosis H37Rv growth inhibition with meropenem
Assay: dose response, H37Rv, with and without meropenem (AID 434987);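 note: growth over 7 days at 37 °C before Alamar Blue read on day 9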
Conditions: M. tuberculosis H37Rv growth inhibition; measured here: IC50 without meropenem
pIC50: −log10 of the molar value.

- input.smiles: "COc1ccc(/C=N\\NC(=O)c2sc(N)nc2C)cc1OC"
  system.name: "M. tuberculosis H37Rv growth inhibition with meropenem"
  pIC50: "< 4.00"
- input.smiles: "CCOc1ccccc1C(=O)Nc1cccc(-c2ccc3nncn3n2)c1"
  system.name: "M. tuberculosis H37Rv growth inhibition with meropenem"
  pIC50: "< 4.00"
- input.smiles: "COC(=O)c1c(C(=O)OC)c(C)n(Cc2ccco2)c1C"
  system.name: "M. tuberculosis H37Rv growth inhibition with meropenem"
  pIC50: "< 4.00"
